# System: osteoclast differentiation
# assay_text: Inhibitory effects on osteoclast differentiation (co-culture of bone marrow cells with osteoblast, TRAP staining)
# Format: cell-based, mice
# study_conditions: Mus musculus, Osteoclast, 168 h; 1 m; co-culture of bone marrow cells and osteoblast, 7 days, TRAP-positive osteoclasts versus controls; read-out: % inhibitory activity on osteoclastogenesis
Here the recorded inhibition at 1 µM is given for each entry.

>  <given_smiles>
CCc1sc(N(C)CCO)nc1-c1ccc(OCCCCCOc2ccc(C(=N)NO)cc2)cc1

>  <inhibition at 1 µM / %>
64.7

$$$$
>  <given_smiles>
CCc1sc(N(CCO)CCO)nc1-c1ccc(OCCCCCOc2ccc(C(=N)NO)cc2)cc1

>  <inhibition at 1 µM / %>
84.1

$$$$
>  <given_smiles>
CC(C)Cc1sc(N2CCOCC2)nc1-c1ccc(OCCCCCOc2ccc(C(=N)NO)cc2)cc1

>  <inhibition at 1 µM / %>
9

$$$$
>  <given_smiles>
CCc1sc(N(C)CCO)nc1-c1ccc(OCCCCOc2ccc(C(=N)NO)cc2)cc1

>  <inhibition at 1 µM / %>
36.9

$$$$
